The measurements presented in this section are drawn from patent US5387709A.

# Tested on: platelets of guinea-pig
# Protocol: Inhibition of the platelet aggregation induced by U46619 (BORN test), guinea-pig platelets
# Format: cell-based
# Run parameters: Cavia porcellus, Platelet, read-out: PLATELET AGGREGATION GUINEA-PIG IC 50
pIC50: −log10 of the molar value.
Observation type: pIC50

{"columns": ["Compound", "Observation type", "Endpoint result"],
 "data": [
  ["O=C(O)Cc1ccc(C2(CNS(=O)(=O)c3ccc(Cl)cc3)CCC2)cc1 [Example 13]", "pIC50", 6.17],
  ["O=C(O)Cc1ccc(CC2(CNS(=O)(=O)c3ccc(Cl)cc3)CCC(=O)CC2)cc1 [Example 91]", "pIC50", 5.51],
  ["CCN(CC)CCOC(=O)Cc1ccc(CC2(CNS(=O)(=O)c3ccc(Cl)cc3)CCCC2)cc1 [Example 79]", "pIC50", 7.00]
]}

a = CCCCCCc1ccc(S(=O)(=O)NCC2(Cc3ccc(CC(=O)O)cc3)CCCC2)cc1 [Example 94]
b = COC(=O)Cc1ccc(CC2(CNS(=O)(=O)c3ccc(Cl)cc3)CCCC2)cc1 [Example 18]
# input Of a versus b , which is the one with smaller reported pIC50? Reply briefly: the label of your chosen item.
# output a
(a: 5.74, b: 6.18)
